Entry source: patent US8497262B2

Biological target: GABAA central benzodiazepine receptor
Assay: Benzodiazepine binding assay ((3H)-flunitrazepam displacement)
Conditions: read-out: BZ binding assay (IC50); rat whole brain (except cerebellum) membranes, 1 nM (3H)-flunitrazepam, 3-concentration dose response curve
So I've got a bunch of compounds here, and I need their IC50 values.

Use the examples below as a reference point.
compound: O=c1c2c[nH]c3ccc(N4CCCNCC4)nc3c-2nn1-c1ccccc1
value_measured: < 1000 nM

compound: CC1CN(c2ccc3[nH]cc4c(=O)n(-c5ccccc5)nc-4c3n2)CCN1 (stereo not shown)
value_measured: < 1000 nM

compound: CN1CCN(c2ccc3[nH]cc4c(=O)n(-c5ccccc5)nc-4c3n2)CC1
value_measured: < 1000 nM

Kindly review the next compound as well.
Task: Please give the measured IC50 for this compound: O=c1c2c[nH]c3cc(N4CCNCC4)ncc3c-2nn1-c1ccccc1
Output: > 1000 nM

---

Biological target: GABAA central benzodiazepine receptor
Assay: Benzodiazepine binding assay ((3H)-flunitrazepam displacement)
Settings: read-out: BZ binding assay (IC50); rat whole brain (except cerebellum) membranes, 1 nM (3H)-flunitrazepam, 3-concentration dose response curve
pIC50: −log10 of the molar value.
metric_name: pIC50

Use the examples below as a reference point.
compound: O=c1c2c[nH]c3ccc(N4CCNCC4)nc3c-2nn1-c1ccccn1
subject_of_test: GABAA central benzodiazepine receptor
value_measured: > 6.00

compound: O=c1c2c[nH]c3ccc(N4CCN(c5ccc(F)cc5)CC4)nc3c-2nn1-c1ccccc1
subject_of_test: GABAA central benzodiazepine receptor
value_measured: > 6.00

compound: O=c1c2c[nH]c3ccc(N4CCCC4)nc3c-2nn1-c1ccccc1
subject_of_test: GABAA central benzodiazepine receptor
value_measured: > 9.00

compound: CN1CCN(c2ccc3[nH]cc4c(=O)n(-c5ccccn5)nc-4c3n2)CC1
subject_of_test: GABAA central benzodiazepine receptor
value_measured: > 6.00

compound: O=C1CN(c2ccc3[nH]cc4c(=O)n(-c5ccccc5)nc-4c3n2)CCN1
subject_of_test: GABAA central benzodiazepine receptor
value_measured: > 6.00

compound: O=c1c2c[nH]c3ccc(N4CCC(O)CC4)nc3c-2nn1-c1ccccc1
subject_of_test: GABAA central benzodiazepine receptor
value_measured: > 9.00

compound: O=c1c2c[nH]c3ccc(N4CCC(O)CC4)nc3c-2nn1-c1ccccn1
subject_of_test: GABAA central benzodiazepine receptor
value_measured: > 9.00

compound: O=c1c2c[nH]c3ccc(N4CCCC(O)C4)nc3c-2nn1-c1ccccc1 (stereo not drawn)
subject_of_test: GABAA central benzodiazepine receptor
value_measured: > 6.00

Task: Please give the measured pIC50 for this compound: COc1ccc(-n2nc3c4nc(N5CCN(C)CC5)ccc4[nH]cc-3c2=O)cc1
Output: > 9.00

---

Test system: GABAA receptors
Experiment: Electrophysiology assay (two-electrode voltage clamp, Xenopus oocytes expressing GABAA receptors)
Assay type: cell-based
Details: positive (Pos) or negative (Neg) modulation of GABA EC10 current at a screening concentration of 10 μM; receptor subtype not stated
metric_name: EP result

molecule: CC1CN(c2ccc3[nH]cc4c(=O)n(-c5ccccc5)nc-4c3n2)CC(C)O1 (stereo not shown) [6m]
metric_name: EP result
value_measured: Pos

molecule: O=c1c2c[nH]c3ccc(N4CCOCC4)nc3c-2nn1-c1ccccc1 [6c]
metric_name: EP result
value_measured: Neg

molecule: COc1ccc(-n2nc3c4nc(N5CCN(C)CC5)ccc4[nH]cc-3c2=O)cc1 [6t]
metric_name: EP result
value_measured: Neg

molecule: O=c1c2c[nH]c3ccc(N4CCNCC4)nc3c-2nn1-c1ccccc1 [6a]
metric_name: EP result
value_measured: Neg
